# credit: ChEMBL document CHEMBL2331174

- test description: Inhibition of gamma-secretase mediated cleavage of Notch 1 in human CCRF-CEM cells assessed as nuclear accumulation of Notch 1 intracellular domain (N1ICD) after 24 hrs by ELISA
- Type: cell-based
pIC50: −log10 of the molar value.
reported endpoint: pIC50

C[C@H](NC(=O)CCC(F)(F)F)C(=O)N[C@@H]1C(=O)N(CCO)c2ncccc2-c2ccccc21 ... 9.12
